# Target Or Test System: LINE1 reverse transcriptase (Homo sapiens, UniProt O00370)
# Construct: expressed in transfected cells; host or cells: HeLa Tet-On 3G (Takara, cat no 631183)
# Sequence (O00370 whole entry, looked up): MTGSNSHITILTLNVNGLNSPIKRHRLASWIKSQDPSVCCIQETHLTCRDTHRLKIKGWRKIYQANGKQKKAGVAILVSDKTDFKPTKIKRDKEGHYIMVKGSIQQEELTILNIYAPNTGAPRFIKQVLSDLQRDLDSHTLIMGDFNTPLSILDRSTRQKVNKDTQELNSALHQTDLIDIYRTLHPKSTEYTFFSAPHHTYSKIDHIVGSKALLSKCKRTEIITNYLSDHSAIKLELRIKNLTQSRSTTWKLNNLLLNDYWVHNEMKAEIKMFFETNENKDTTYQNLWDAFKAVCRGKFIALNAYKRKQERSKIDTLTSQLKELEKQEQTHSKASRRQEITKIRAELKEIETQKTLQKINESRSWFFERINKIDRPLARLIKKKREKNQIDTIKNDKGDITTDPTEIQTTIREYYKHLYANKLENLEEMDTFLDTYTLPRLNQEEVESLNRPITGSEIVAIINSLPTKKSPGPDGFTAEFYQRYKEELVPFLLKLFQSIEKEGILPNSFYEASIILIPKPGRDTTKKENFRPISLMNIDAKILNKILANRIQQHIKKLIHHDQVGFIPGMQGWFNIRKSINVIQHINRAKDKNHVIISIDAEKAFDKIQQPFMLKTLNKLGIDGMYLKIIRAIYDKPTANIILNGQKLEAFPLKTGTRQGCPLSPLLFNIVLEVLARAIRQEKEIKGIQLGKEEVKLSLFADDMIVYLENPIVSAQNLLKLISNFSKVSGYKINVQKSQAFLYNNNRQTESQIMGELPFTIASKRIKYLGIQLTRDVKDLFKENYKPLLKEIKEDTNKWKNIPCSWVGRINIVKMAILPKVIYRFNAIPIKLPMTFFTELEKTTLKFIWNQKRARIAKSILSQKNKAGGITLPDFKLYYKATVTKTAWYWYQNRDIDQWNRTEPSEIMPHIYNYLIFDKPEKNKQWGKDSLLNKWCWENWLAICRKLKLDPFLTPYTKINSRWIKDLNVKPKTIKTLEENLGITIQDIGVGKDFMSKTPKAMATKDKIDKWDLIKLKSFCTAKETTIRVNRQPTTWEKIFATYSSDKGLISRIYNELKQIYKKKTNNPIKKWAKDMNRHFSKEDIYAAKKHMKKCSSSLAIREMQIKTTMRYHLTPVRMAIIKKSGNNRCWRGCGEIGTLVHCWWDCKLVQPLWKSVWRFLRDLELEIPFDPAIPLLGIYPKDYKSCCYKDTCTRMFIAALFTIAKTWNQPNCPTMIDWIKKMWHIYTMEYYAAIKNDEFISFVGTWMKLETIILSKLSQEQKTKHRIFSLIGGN
# Assay Notes: Stable artificial-intron Cis LINE1 reporter assay (HeLa Tet-On 3G, Firefly luciferase)
# Type: cell-based
# Condition Summary: HeLa L1 artificial-intron reporter cells, doxycycline 500 ng/mL, 72 h, class symbols
Readout: IC50

{"Smi": "C#C[C@]1(CO)O[C@@H](n2ccc(N)nc2=O)[C@H](F)[C@@H]1O", "Readout": "IC50", "Reported Result": "> 1000 nM"}

Report measured IC50 on LINE1 reverse transcriptase (Homo sapiens, UniProt O00370); entry: `Nc1ccn([C@H]2C[C@H](O)[C@](CO)(C(F)F)O2)c(=O)n1`
250 to 1000 nM

Report measured IC50 on LINE1 reverse transcriptase (Homo sapiens, UniProt O00370); entry: `CC[C@]1(CO)O[C@@H](n2cnc3c(O)nc(N)nc32)C[C@@H]1O`
≤ 50 nM

---

# Target Or Test System: LINE1 reverse transcriptase (Homo sapiens)
# Construct: expressed in transfected cells; host or cells: HeLa Tet-On 3G (Takara, cat no 631183)
# Assay Notes: Stable artificial-intron Cis LINE1 reporter assay (HeLa Tet-On 3G, Firefly luciferase)
# Format: cell-based
# Condition Summary: HeLa L1 artificial-intron reporter cells, doxycycline 500 ng/mL, 72 h, class symbols
pIC50: −log10 of the molar value.
Quick reference: pIC50 of the listed items.

Some molecules with known pIC50 results, for comparison:
{"Molecule": "Nc1nc(=O)n([C@@H]2O[C@@](CO)(CI)[C@@H](O)[C@@H]2F)cc1F", "Reported Result": "< 6.00"}
{"Molecule": "Cc1cn([C@H]2C[C@H](F)[C@@](C)(CO)O2)c(=O)[nH]c1=O", "Reported Result": "< 6.00"}
{"Molecule": "Nc1nc(=O)n([C@@H]2O[C@](/C=C/Cl)(CO)[C@@H](O)[C@@H]2F)cc1F", "Reported Result": "6.60 to 7.00"}

Output pIC50 of C=CCC1(CO)O[C@@H](n2ccc(N)nc2=O)C[C@@H]1O (stereo partly drawn)
6.60 to 7.00

Output pIC50 of `CC[C@]1(CO)O[C@@H](n2ccc(N)nc2=O)C[C@@H]1O`
≥ 7.30

Output pIC50 of `Nc1nc(=O)n([C@H]2C[C@H](O)[C@](CO)(CBr)O2)cc1F`
≥ 7.30

Output pIC50 of `Nc1nc(=O)n([C@H]2C[C@H](O)[C@](CO)(C(F)F)O2)cc1F`
≥ 7.30

Output pIC50 of `Nc1ccn([C@@H]2O[C@@](CO)(CBr)[C@@H](O)[C@@H]2F)c(=O)n1`
≥ 7.30

Output pIC50 of `Nc1ncnc2c1ncn2[C@H]1C[C@H](O)[C@](CO)(CCl)O1`
6.00 to 6.60

---

# Target Or Test System: LINE1 reverse transcriptase (Homo sapiens)
# Construct: expressed in transfected cells; host or cells: HeLa Tet-On 3G (Takara, cat no 631183)
# Assay Notes: Stable artificial-intron Cis LINE1 reporter assay (HeLa Tet-On 3G, Firefly luciferase)
# Format: cell-based
# Condition Summary: HeLa L1 artificial-intron reporter cells, doxycycline 500 ng/mL, 72 h, class symbols
Readout: IC50

Some molecules with known IC50 results, for comparison:
{"Molecule": "C=C[C@]1(CO)O[C@@H](n2cc(F)c(N)nc2=O)[C@@H](F)[C@@H]1O [Compound 76]", "Reported Result": "≤ 50 nM"}
{"Molecule": "[N-]=[N+]=N[C@]1(CO)O[C@@H](n2cc(F)c(N)nc2=O)C[C@@H]1O [Compound 61]", "Reported Result": "≤ 50 nM"}
{"Molecule": "Nc1ccn([C@@H]2O[C@@](CO)(C3CC3)[C@@H](O)[C@@H]2F)c(=O)n1 [Compound 121]", "Reported Result": "100 to 250 nM"}
{"Molecule": "CC(C)[C@]1(CO)O[C@@H](n2ccc(N)nc2=O)C[C@@H]1O [Compound 55]", "Reported Result": "> 1000 nM"}
{"Molecule": "Nc1ccn([C@H]2C[C@@H](O)[C@](CO)(CCl)O2)c(=O)n1 [Compound 59]", "Reported Result": "> 1000 nM"}
{"Molecule": "CO[C@@H]1[C@H](n2ccc(N)nc2=O)O[C@@](CO)(CCl)[C@H]1O [Compound 13]", "Reported Result": "250 to 1000 nM"}
{"Molecule": "C#C[C@]1(CO)O[C@@H](n2cc(F)c(N)nc2=O)[C@@H](O)[C@@H]1O [Compound 116]", "Reported Result": "100 to 250 nM"}
{"Molecule": "Cc1cn([C@@H]2O[C@@](CO)(N=[N+]=[N-])[C@@H](O)[C@@H]2F)c(=O)[nH]c1=O [Compound 178]", "Reported Result": "50 to 100 nM"}
{"Molecule": "Cc1cn([C@@H]2O[C@@](CO)(CCl)[C@@H](O)[C@H]2F)c(=O)[nH]c1=O [Compound 9]", "Reported Result": "> 1000 nM"}
{"Molecule": "C=C[C@]1(CO)O[C@@H](n2cnc3c(N)nc(F)nc32)[C@@H](F)[C@@H]1O [Compound 80]", "Reported Result": "100 to 250 nM"}

Output IC50 of C#C[C@]1(CO)O[C@@H](n2cnc3c(N)nc(Cl)nc32)[C@@H](F)[C@@H]1O [Compound 5]
50 to 100 nM
